# assay system: PfCRT^3D7 (Plasmodium falciparum, UniProt Q8IBZ9)
# Sequence (Q8IBZ9 59-398): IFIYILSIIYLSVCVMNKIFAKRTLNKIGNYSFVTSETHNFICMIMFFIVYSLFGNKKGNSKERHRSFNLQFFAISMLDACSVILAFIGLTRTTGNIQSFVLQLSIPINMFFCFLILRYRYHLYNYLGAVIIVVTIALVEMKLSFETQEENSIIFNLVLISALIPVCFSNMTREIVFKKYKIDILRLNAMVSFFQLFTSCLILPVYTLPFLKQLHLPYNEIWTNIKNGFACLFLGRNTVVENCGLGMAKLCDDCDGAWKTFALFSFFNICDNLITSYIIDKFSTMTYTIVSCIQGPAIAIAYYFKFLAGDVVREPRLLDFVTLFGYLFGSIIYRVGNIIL
# assay remarks: cell-based
# Type: cell-based
# recorded conditions: total [3H]CQ transport; [test solute] = 2 mM; mean ± SEM; SEM; read-out: Uptake of [3H]CQ (% PfCRTDd2 control), cis-inhibition, PfCRT3D7
If the reported inhibition at 2000 µM equals or exceeds 3%, assign fulfilled. If not, assign not fulfilled.

item smiles	assay system	group
N[C@@H](Cc1c[nH]cn1)C(=O)O	PfCRT^3D7 (Plasmodium falciparum, UniProt Q8IBZ9)	not fulfilled
N[C@@H](CO)C(=O)O	PfCRT^3D7 (Plasmodium falciparum, UniProt Q8IBZ9)	not fulfilled
N[C@@H](Cc1ccccc1)C(=O)O	PfCRT^3D7 (Plasmodium falciparum, UniProt Q8IBZ9)	fulfilled
NC(=O)CC[C@H](N)C(=O)O	PfCRT^3D7 (Plasmodium falciparum, UniProt Q8IBZ9)	not fulfilled
C[C@H](N)C(=O)O	PfCRT^3D7 (Plasmodium falciparum, UniProt Q8IBZ9)	fulfilled

# evaluate next
**Query** Threshold query (inhibition at 2000 µM >= 3%) on "N[C@@H](Cc1c[nH]c2ccccc12)C(=O)O"
**Result** not fulfilled

* * *

# assay system: PfCRT^3D7 (Plasmodium falciparum)
# assay remarks: cell-based
# Format: cell-based
# recorded conditions: total [3H]CQ transport; [test solute]i = 5 mM (intracellular); mean ± SEM; SEM; read-out: Uptake of [3H]CQ (% PfCRTDd2 control), trans-stimulation, PfCRT3D7
Collected activity at 5000 µM values appear next to each entry.
Form entry: value (%) — number only.

Some solved entries appear below for comparison.
item smiles	assay system	unit annotation	measured
CC(C)C[C@H](N)C(=O)O	PfCRT^3D7 (Plasmodium falciparum)	%	3.3
N[C@@H](Cc1c[nH]c2ccccc12)C(=O)O	PfCRT^3D7 (Plasmodium falciparum)	%	3.3
N[C@@H](Cc1ccccc1)C(=O)O	PfCRT^3D7 (Plasmodium falciparum)	%	3.3
NC(=O)CC[C@H](N)C(=O)O	PfCRT^3D7 (Plasmodium falciparum)	%	3.3
N[C@@H](Cc1c[nH]cn1)C(=O)O	PfCRT^3D7 (Plasmodium falciparum)	%	3.2
N=C(N)NCCC[C@H](N)C(=O)O	PfCRT^3D7 (Plasmodium falciparum)	%	3.3
CC[C@H](C)[C@H](N)C(=O)O	PfCRT^3D7 (Plasmodium falciparum)	%	3.3
C[C@@H](O)[C@H](N)C(=O)O	PfCRT^3D7 (Plasmodium falciparum)	%	3.3
CC(C)[C@H](N)C(=O)O	PfCRT^3D7 (Plasmodium falciparum)	%	3.3
N[C@@H](CS)C(=O)O	PfCRT^3D7 (Plasmodium falciparum)	%	3.3

**Query** Report activity at 5000 µM under test system PfCRT^3D7 (Plasmodium falciparum) for "NCCCC[C@H](N)C(=O)O" .
**Result** 3.3

**Query** Report activity at 5000 µM under test system PfCRT^3D7 (Plasmodium falciparum) for "N[C@@H](CCC(=O)O)C(=O)O" .
**Result** 3.4

**Query** Report activity at 5000 µM under test system PfCRT^3D7 (Plasmodium falciparum) for "C[C@H](N)C(=O)O" .
**Result** 3.3

**Query** Report activity at 5000 µM under test system PfCRT^3D7 (Plasmodium falciparum) for "N[C@@H](CO)C(=O)O" .
**Result** 3.3

Data provenance is paper PMC7413254.
